# ASSAYED SYSTEM: human APJ receptor (Homo sapiens (Human))
# ASSAY: Intracellular cAMP accumulation assay (APJ hcAMP, HTRF)
# Assay type: cell-based
# CONDITION DETAILS: HEK293 cells stably expressing human APJ receptor; inhibition of forskolin-mediated cAMP production; read-out: Human APJ cAMP EC50 Potency range
Each record here notes measured EC50.

Examples with their reported EC50 follow.
MOLECULE	MEASURED VALUE
CCCCc1nc(O)c(-c2nnc(Cc3ccc(Cl)cc3)o2)c(O)c1-c1c(OC)ccc(F)c1OC (single isomer, unassigned) [Example 219]	0.01 to 10 nM
CCCCc1nc(O)c(-c2nnc(Cc3noc4cccnc34)o2)c(O)c1-c1c(OC)cccc1OC	0.01 to 10 nM
CCCCc1nc(O)c(-c2nnc(CN(C)C(=O)Cc3ccccc3)o2)c(O)c1-c1c(OC)cccc1OC	0.01 to 10 nM

**Q:** Record request: EC50 value, item CCOCc1nc(O)c(-c2nnc(Cc3ccc(Cl)cc3)o2)c(O)c1-c1c(O)cccc1OC (single isomer, unassigned) [Example 223]
**A:** 10 to 100 nM

**Q:** Record request: EC50 value, item CCCCc1nc(O)c(-c2nnc(CC(=O)N(CC)CC)o2)c(O)c1-c1c(OC)cccc1OC
**A:** 0.01 to 10 nM

====

# ASSAYED SYSTEM: human APJ receptor (Homo sapiens (Human))
# ASSAY: Intracellular cAMP accumulation assay (APJ hcAMP, HTRF)
# Type: cell-based
# CONDITION DETAILS: HEK293 cells stably expressing human APJ receptor; inhibition of forskolin-mediated cAMP production; read-out: hAPJ cAMP EC50 Potency range
pEC50: −log10 of the molar value.
METRIC: pEC50

**Q:** Record request: pEC50 value, item CCCCc1nc(O)c(-c2nnc(Cc3cccc(C(F)(F)F)c3)o2)c(O)c1-c1c(OC)cccc1OC [Example 73]
**A:** 7.00 to 8.00

**Q:** Record request: pEC50 value, item CCOCc1nc(O)c(-c2nnc(Cn3ccc(C(F)(F)F)n3)o2)c(O)c1-c1c(OC)cccc1OC [Example 129]
**A:** 7.00 to 8.00

**Q:** Record request: pEC50 value, item CCOCc1nc(O)c(-c2nnc(Cc3ccc(C)c(F)c3)o2)c(O)c1-c1c(OC)cccc1OC [Example 126]
**A:** 8.00 to 11.00

**Q:** Record request: pEC50 value, item CCOCc1nc(O)c(-c2nnc(Cn3ccc(-c4ccccc4)n3)o2)c(O)c1-c1c(OC)cccc1OC [Example 128]
**A:** 8.00 to 11.00

**Q:** Record request: pEC50 value, item CCCCc1[nH]c(=O)c(-c2nnc(Cc3csc(C)n3)o2)c(O)c1-c1cccc(C(=O)NC(C)C)c1 [Example 149]
**A:** 8.00 to 11.00

**Q:** Record request: pEC50 value, item CCCCc1nc(O)c(-c2nnc(CC(=O)NCC(F)F)o2)c(O)c1-c1c(OC)cccc1OC [Example 191]
**A:** 8.00 to 11.00

**Q:** Record request: pEC50 value, item CCOCc1nc(O)c(-c2nnc(Cn3nnc4ccccc43)o2)c(O)c1-c1c(OC)cccc1OC [Example 133]
**A:** 8.00 to 11.00

**Q:** Record request: pEC50 value, item CCCCc1nc(O)c(-c2nnc(C(c3ccc(F)cc3)N(C)C)o2)c(O)c1-c1c(OC)cccc1OC (stereo not drawn) [Example 88]
**A:** 8.00 to 11.00

**Q:** Record request: pEC50 value, item CCCCc1nc(O)c(-c2nnc(CN3C(=O)CN(C)C3=O)o2)c(O)c1-c1c(OC)cccc1OC [Example 98]
**A:** 8.00 to 11.00

====

# ASSAYED SYSTEM: human APJ receptor (Homo sapiens (Human), UniProt P35414)
# Sequence (P35414 whole entry): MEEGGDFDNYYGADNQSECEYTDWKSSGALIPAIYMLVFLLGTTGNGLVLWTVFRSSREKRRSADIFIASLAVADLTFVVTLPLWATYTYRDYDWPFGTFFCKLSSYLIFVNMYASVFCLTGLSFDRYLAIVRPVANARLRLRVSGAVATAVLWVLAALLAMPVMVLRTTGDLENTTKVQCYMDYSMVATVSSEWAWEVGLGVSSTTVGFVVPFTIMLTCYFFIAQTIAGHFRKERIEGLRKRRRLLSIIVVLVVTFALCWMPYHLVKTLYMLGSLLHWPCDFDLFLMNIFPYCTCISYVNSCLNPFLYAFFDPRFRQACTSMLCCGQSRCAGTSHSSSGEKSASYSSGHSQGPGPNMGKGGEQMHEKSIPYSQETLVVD
# ASSAY: Intracellular cAMP accumulation assay (APJ hcAMP, HTRF)
# Format: cell-based
# CONDITION DETAILS: HEK293 cells stably expressing human APJ receptor; inhibition of forskolin-mediated cAMP production; read-out: hAPJ cAMP EC50 Potency range
pEC50: −log10 of the molar value.
METRIC: pEC50

Examples with their reported pEC50 follow.
MOLECULE	pEC50
CCCCc1nc(O)c(-c2nnc(Cc3cc(C)no3)o2)c(O)c1-c1c(OC)cccc1OC [Example 51]	8.00 to 11.00
CCCCc1nc(O)c(-c2nnc(CCc3ccc(Cl)cc3)o2)c(O)c1-c1c(OC)cccc1OC [Example 68]	8.00 to 11.00
CCCCc1nc(O)c(-c2nnc(Cc3csc(-c4ccc(Cl)cc4)n3)o2)c(O)c1-c1c(OC)cccc1OC [Example 39]	7.00 to 8.00
CCCCc1nc(O)c(-c2nnc(CC(=O)OCC)o2)c(O)c1-c1c(OC)cccc1OC [Example 96]	7.00 to 8.00
CCCCc1nc(O)c(-c2nnc(Cn3ccccc3=O)o2)c(O)c1-c1c(OC)cccc1OC [Example 114]	8.00 to 11.00

**Q:** Record request: pEC50 value, item CCCCc1nc(O)c(-c2nnc(Cc3nc4ccccc4o3)o2)c(O)c1-c1c(OC)cccc1OC [Example 25]
**A:** 8.00 to 11.00

**Q:** Record request: pEC50 value, item CCCCc1nc(O)c(-c2nnc(COc3ccccc3)o2)c(O)c1-c1c(OC)cccc1OC [Example 17]
**A:** 7.00 to 8.00

**Q:** Record request: pEC50 value, item CCCCc1nc(O)c(-c2nnc(Cc3cnccn3)o2)c(O)c1-c1c(OC)cccc1OC [Example 21]
**A:** 8.00 to 11.00

====

# ASSAYED SYSTEM: human APJ receptor (Homo sapiens (Human), UniProt P35414)
# ASSAY: Intracellular cAMP accumulation assay (APJ hcAMP, HTRF)
# Type: cell-based
# CONDITION DETAILS: HEK293 cells stably expressing human APJ receptor; inhibition of forskolin-mediated cAMP production; read-out: hAPJ cAMP EC50 Potency range
Each record here notes measured EC50.

Examples with their reported EC50 follow.
MOLECULE	ASSAYED SYSTEM	MEASURED VALUE
CCCCc1nc(O)c(-c2nnc(Cc3cncnc3)o2)c(O)c1-c1c(OC)cccc1OC [Example 22]	human APJ receptor (Homo sapiens (Human), UniProt P35414)	10 to 100 nM
CCCCc1nc(O)c(-c2nnc(CCc3nc4ccccc4s3)o2)c(O)c1-c1c(OC)cccc1OC [Example 82]	human APJ receptor (Homo sapiens (Human), UniProt P35414)	0.01 to 10 nM
CCCCc1nc(O)c(-c2nnc(CC(=O)N3CCCC3)o2)c(O)c1-c1c(OC)cccc1OC [Example 194]	human APJ receptor (Homo sapiens (Human), UniProt P35414)	0.01 to 10 nM
CCCCc1nc(O)c(-c2nnc(CNC(=O)Cc3ccccc3)o2)c(O)c1-c1c(OC)cccc1OC [Example 166]	human APJ receptor (Homo sapiens (Human), UniProt P35414)	0.01 to 10 nM
CCCCc1nc(O)c(-c2nnc(Cc3noc4ccccc34)o2)c(O)c1-c1c(OC)ccc(F)c1OC (single isomer, unassigned; isomer 2) [Example 221]	human APJ receptor (Homo sapiens (Human), UniProt P35414)	0.01 to 10 nM
CCCCc1nc(O)c(-c2nnc(Cc3cccc(F)c3)o2)c(O)c1-c1c(OC)cccc1OC [Example 99]	human APJ receptor (Homo sapiens (Human), UniProt P35414)	0.01 to 10 nM
CCCCc1nc(O)c(-c2nnc(CC(=O)NC3CC3)o2)c(O)c1-c1c(OC)cccc1OC [Example 188]	human APJ receptor (Homo sapiens (Human), UniProt P35414)	0.01 to 10 nM
CCCCc1nc(O)c(-c2nnc(Cc3noc4ccccc34)o2)c(O)c1-c1ccccc1 [Example 138]	human APJ receptor (Homo sapiens (Human), UniProt P35414)	10 to 100 nM
CCOCc1nc(O)c(-c2nnc(Cn3ncc4ccccc43)o2)c(O)c1-c1c(OC)cccc1OC [Example 134]	human APJ receptor (Homo sapiens (Human), UniProt P35414)	0.01 to 10 nM
COc1cccc(OC)c1-c1c(C2CC2)nc(O)c(-c2nnc(Cc3noc4ccccc34)o2)c1O [Example 92]	human APJ receptor (Homo sapiens (Human), UniProt P35414)	10 to 100 nM

**Q:** Record request: EC50 value, item CCCCc1nc(O)c(-c2nnc(CNC(C)=O)o2)c(O)c1-c1c(OC)cccc1OC [Example 175]
**A:** 0.01 to 10 nM

**Q:** Record request: EC50 value, item CCOCc1nc(O)c(-c2nnc(Cc3ccc(Cl)cc3)o2)c(O)c1-c1c(OC)cccc1OC [Example 90]
**A:** 0.01 to 10 nM

**Q:** Record request: EC50 value, item CCOCc1nc(O)c(-c2nnc(CN3CCCC3=O)o2)c(O)c1-c1c(OC)cccc1OC [Example 112]
**A:** 0.01 to 10 nM
